# measured.target: rhesus (Macacca Mulatta) H3 receptor (Macaca mulatta, UniProt Q865E1)
# Construct: rhesus monkey (Macacca Mulatta) 445 amino acid H3 receptor; (Genbank #AY231164); membrane preparation
# Sequence (Q865E1 1-445): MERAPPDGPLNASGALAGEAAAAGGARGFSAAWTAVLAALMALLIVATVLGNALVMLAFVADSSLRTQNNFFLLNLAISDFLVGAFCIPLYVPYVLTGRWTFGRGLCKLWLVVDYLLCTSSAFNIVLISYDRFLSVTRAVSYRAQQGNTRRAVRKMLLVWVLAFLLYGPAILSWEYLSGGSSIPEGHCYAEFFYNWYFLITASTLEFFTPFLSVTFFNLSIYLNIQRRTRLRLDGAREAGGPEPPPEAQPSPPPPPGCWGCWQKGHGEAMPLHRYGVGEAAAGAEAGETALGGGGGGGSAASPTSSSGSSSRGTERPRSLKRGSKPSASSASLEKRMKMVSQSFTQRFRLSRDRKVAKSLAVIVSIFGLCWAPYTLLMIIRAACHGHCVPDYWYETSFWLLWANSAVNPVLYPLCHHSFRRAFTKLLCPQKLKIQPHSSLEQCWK
# experiment: Rhesus H3 radioligand binding assay ([3H]-Methylhistamine displacement, WGA SPA)
# conditions.used: [3H]-Methylhistamine 2 nM; rhesus H3 membranes from Flp-In T-REx 293 cells; 25° C., 1 hour; Ki by Cheng-Prusoff equation
Just a reminder that ties go to Not fulfilled: only Ki strictly below 0.08 µM counts as Fulfilled.

Example entries begin here.
Cc1nc(N2CC[C@@H](N3CCC[C@@H]3C)C2)ccc1NC(=O)c1c(C)noc1C: Not fulfilled
CC(=O)N1CCC(C(=O)Nc2ccc(N3CC[C@@H](N4CCC[C@@H]4C)C3)nc2C)CC1: Fulfilled
C[C@H]1CCCN1[C@H]1CCN(c2ccc(NC(=O)C3CCOCC3)nc2)C1: Fulfilled

# input Confirm or reject: Ki of `Cc1nc(N2CC[C@H](N3CCC[C@@H]3C)C2)ccc1NS(=O)(=O)C1CCCCC1` lies strictly below 0.08 µM
# output Fulfilled

# input Confirm or reject: Ki of `Cc1ccc(F)cc1C(=O)Nc1ccc(N2CC[C@@H](N3CCC[C@@H]3C)C2)nc1C` lies strictly below 0.08 µM
# output Not fulfilled
